Target: HIV protease (Human immunodeficiency virus type 1 group M subtype B, UniProt P12497)
Recorded IC50, one value per entry.

Field: example entries. Status: answers known.
CC(C)(C)NC(=O)c1ccccc1C[C@@H](O)C[C@@H](Cc1ccccc1)C(=O)N[C@H]1c2ccccc2C[C@H]1O : 1 to 6 nM
Cc1ccc(C[C@@H](O)C[C@@H](Cc2ccccc2)C(=O)N[C@H]2c3ccccc3C[C@H]2O)c(C(=O)NC(C)(C)C)c1 : 1 to 6 nM

With those in mind, consider the next molecule.
Find the recorded IC50 belonging to CC(C)(C)NS(=O)(=O)c1ccccc1C[C@@H](O)C[C@@H](Cc1ccccc1)C(=O)N[C@H]1c2ccccc2C[C@H]1O and report it.
1 to 6 nM
